# test_system: Bcl-2 protein (Recombinant Human Bcl-2 Protein) (Homo sapiens, UniProt P10415)
# Construct: purchased Novus NBP2-34889
# Sequence (P10415 whole entry): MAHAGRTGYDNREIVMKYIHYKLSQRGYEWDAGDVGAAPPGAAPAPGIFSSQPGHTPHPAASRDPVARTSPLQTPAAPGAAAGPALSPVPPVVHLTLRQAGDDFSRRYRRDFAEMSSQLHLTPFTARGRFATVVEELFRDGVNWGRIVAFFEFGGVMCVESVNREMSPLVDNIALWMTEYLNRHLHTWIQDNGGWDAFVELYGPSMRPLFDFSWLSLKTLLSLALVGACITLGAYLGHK
# method_notes: Binding evaluation of mixture library compounds to Bcl-2 using AS-MS (affinity selection mass spectrometry)
# run_conditions: AS-MS on the mixture of 1200 library compounds; ASMS Ratio(%)=(A−C)/B×100; replicate n = 1

compound	ASMS ratio (%) n = 1
CCCNC(=O)c1ccc(N2CCN(Cc3ccc(-c4cncc(OCC)c4)cc3OC)CC2)nn1 [B1M100-01]	0.5
CCOc1cncc(-c2cnn(-c3cc(C(=O)N4CCN(c5ccc(C(=O)N(C)CC67CC8CC(CC(C8)C6)C7)cc5)CC4)cc(C(F)(F)F)c3)c2)c1 [B3A044-01]	12.3
CCOc1cccc(-c2ccc(CN3CCN(c4ccc(C(=O)Nc5ccc(OC)cc5)nn4)CC3)c(CC)c2)c1 [B1O075-01]	9.3
CCOc1cncc(C#Cc2ccccc2C(=O)N2CCN(c3ccc(C(=O)N(CC)CC)cc3)CC2)c1 [B4J030-01]	0.1

----------
# test_system: Bcl-2 protein (Recombinant Human Bcl-2 Protein) (Homo sapiens)
# Construct: purchased Novus NBP2-34889
# method_notes: Binding evaluation of mixture library compounds to Bcl-2 using AS-MS (affinity selection mass spectrometry)
# run_conditions: AS-MS, mixture of 1200 compounds, Bcl-2; ASMS Ratio(%)=(A−C)/B×100; replicate n = 2

structure_notation	ASMS ratio (%) n = 2
CCOc1cccc(-c2ccc(CN3CCN(c4ccc(C(=O)NCC(F)(F)F)nn4)CC3)c3ccccc23)c1	−4.2
CCOc1cncc(-c2csc(C(=O)N3CCN(c4ccc(C(=O)NCC56CC7CC(CC(C7)C5)C6)nn4)CC3)c2)c1	4.9
CCOc1cccc(-c2ccc(CN3CCN(c4ccc(C(=O)NCC56CC7CC(CC(C7)C5)C6)nn4)CC3)cc2C)c1	−4.7
CCOc1cccc(-c2cc(CN3CCN(c4ccc(C(=O)NCC56CC7CC(CC(C7)C5)C6)nn4)CC3)cc(OC(C)C)c2)c1	0.5
CCOc1cccc(C#Cc2ccccc2CN2CCN(c3ccc(C(=O)NCC(F)(F)F)cc3)CC2)c1	−1.4
CCOc1cccc(-c2ccccc2CN2CCN(c3ccc(C(=O)NCC45CC6CC(CC(C6)C4)C5)cc3)CC2)c1	−2.2
CCOc1cncc(C#Cc2cncc(C(=O)N3CCN(c4ccc(C(=O)NCC56CC7CC(CC(C7)C5)C6)nn4)CC3)c2)c1	0.0

----------
# test_system: Bcl-2 protein (Recombinant Human Bcl-2 Protein) (Homo sapiens)
# Construct: purchased Novus NBP2-34889
# method_notes: Binding evaluation of mixture library compounds to Bcl-2 using AS-MS (affinity selection mass spectrometry)
# run_conditions: AS-MS, mixture library, Bcl-2; replicate n = 1; ASMS Ratio(%)=(A−C)/B×100
Overview of reported ASMS ratio (%) n = 1 across a group of compounds:
observable: ASMS ratio (%) n = 1

compound	observable	numeric_readout
CCOc1cccc(-c2ccc(C(=O)N3CCN(c4ccc(C(=O)NS(=O)(=O)CC56CC7CC(CC(C7)C5)C6)nn4)CC3)c3ccccc23)c1	ASMS ratio (%) n = 1	11.6
CCOc1cccc(-c2cc(CN3CCN(c4ccc(C(=O)NS(=O)(=O)CC56CC7CC(CC(C7)C5)C6)nn4)CC3)cc(OCC)c2)c1	ASMS ratio (%) n = 1	18.6
CCOc1cncc(-c2ccc(C(=O)N3CCN(c4ccc(C(=O)NS(C)(=O)=O)cc4)CC3)c3ccccc23)c1	ASMS ratio (%) n = 1	−0.7
CCOc1cccc(-c2cc(C(=O)N3CCN(c4ccc(C(=O)NS(C)(=O)=O)nn4)CC3)cc(C(F)(F)F)c2)c1	ASMS ratio (%) n = 1	0.0
CCOc1cncc(C#Cc2cc(C(=O)N3CCN(c4ccc(C(=O)NS(=O)(=O)c5ccc(NCCSc6ccccc6)c([N+](=O)[O-])c5)nn4)CC3)cc(C(F)(F)F)c2)c1	ASMS ratio (%) n = 1	6.1
CCOc1cncc(-c2ccc(CN3CCN(c4ccc(C(=O)N(CC)CC)nn4)CC3)c(CC)c2)c1	ASMS ratio (%) n = 1	0.0
CCOc1cncc(-c2ccc(CN3CCN(c4ccc(C(=O)N(CC)CC)nn4)CC3)c(OC)c2)c1	ASMS ratio (%) n = 1	0.0
CCOc1cncc(-c2ccc(CN3CCN(c4ccc(C(=O)NS(=O)(=O)c5ccc(NCCSc6ccccc6)c([N+](=O)[O-])c5)cc4)CC3)cc2F)c1	ASMS ratio (%) n = 1	22.8
CCOc1cncc(-c2ccc(CN3CCN(c4ccc(C(=O)N(CC)CC)nn4)CC3)cc2F)c1	ASMS ratio (%) n = 1	−0.5
CCOc1cccc(-c2ccccc2CN2CCN(c3ccc(C(=O)N(CC)CC)nn3)CC2)c1	ASMS ratio (%) n = 1	0.4
CCOc1cncc(-c2cc(CN3CCN(c4ccc(C(=O)N(CC)CC)cc4)CC3)cc(C(F)(F)F)c2)c1	ASMS ratio (%) n = 1	0.0
CCOc1cccc(-c2ccc(C(C)N3CCN(c4ccc(C(=O)NS(=O)(=O)CC56CC7CC(CC(C7)C5)C6)cc4)CC3)cc2)c1 (centres unmarked)	ASMS ratio (%) n = 1	9.7
CCOc1cncc(-c2ccc(CN3CCN(c4ccc(C(=O)NS(=O)(=O)c5ccc(NCCSc6ccccc6)c([N+](=O)[O-])c5)nn4)CC3)c(OC)c2)c1	ASMS ratio (%) n = 1	12.6
CCOc1cncc(-c2ccc(CN3CCN(c4ccc(C(=O)NS(=O)(=O)CC56CC7CC(CC(C7)C5)C6)nn4)CC3)c3ccccc23)c1	ASMS ratio (%) n = 1	20.8
CCOc1cccc(-c2ccccc2CN2CCN(c3ccc(C(=O)NS(=O)(=O)c4ccc(NCCSc5ccccc5)c([N+](=O)[O-])c4)nn3)CC2)c1	ASMS ratio (%) n = 1	25.0
CCOc1cncc(-c2ccc(C(=O)N3CCN(c4ccc(C(=O)NS(=O)(=O)c5ccc(NCCSc6ccccc6)c([N+](=O)[O-])c5)nn4)CC3)cc2C)c1	ASMS ratio (%) n = 1	10.7
CCOc1cccc(-c2ccc(CN3CCN(c4ccc(C(=O)NS(=O)(=O)c5ccc(NCCSc6ccccc6)c([N+](=O)[O-])c5)nn4)CC3)c(OC)c2)c1	ASMS ratio (%) n = 1	17.6
CCOc1cccc(C#Cc2cncc(C(=O)N3CCN(c4ccc(C(=O)NS(=O)(=O)c5ccc(NCCSc6ccccc6)c([N+](=O)[O-])c5)nn4)CC3)c2)c1	ASMS ratio (%) n = 1	16.5
CCOc1cccc(-c2ccc(CN3CCN(c4ccc(C(=O)N(CC)CC)nn4)CC3)c(CC)c2)c1	ASMS ratio (%) n = 1	0.0
CCOc1cncc(-c2ccc(C(=O)N3CCN(c4ccc(C(=O)NS(C)(=O)=O)cc4)CC3)cc2C)c1	ASMS ratio (%) n = 1	−2.6
CCOc1cccc(-c2ccc(CN3CCN(c4ccc(C(=O)N(CC)CC)nn4)CC3)c(OC)c2)c1	ASMS ratio (%) n = 1	0.0
CCOc1cncc(C#Cc2cncc(C(=O)N3CCN(c4ccc(C(=O)NS(=O)(=O)CC56CC7CC(CC(C7)C5)C6)cc4)CC3)c2)c1	ASMS ratio (%) n = 1	0.0
CCOc1cccc(-c2ccc(C(=O)N3CCN(c4ccc(C(=O)NS(C)(=O)=O)cc4)CC3)cc2F)c1	ASMS ratio (%) n = 1	0.0
CCOc1cncc(-c2csc(C(=O)N3CCN(c4ccc(C(=O)NS(C)(=O)=O)nn4)CC3)c2)c1	ASMS ratio (%) n = 1	0.0
CCOc1cncc(-c2ccc(C(=O)N3CCN(c4ccc(C(=O)NS(=O)(=O)CC56CC7CC(CC(C7)C5)C6)nn4)CC3)cc2F)c1	ASMS ratio (%) n = 1	0.0
CCOc1cncc(-c2csc(CN3CCN(c4ccc(C(=O)N(CC)CC)cc4)CC3)c2)c1	ASMS ratio (%) n = 1	0.7
